- procedure_text: total protein half-life in vivo (active degradation + dilution); higher = more stable protein
- conditions_used: wild type E. coli NCM3722; growth: C-lim chemostat; doubling time 6 h
reported_metric: total protein half-life in vivo (h)
Numbers only, in h.

Q) Please report the measured total protein half-life in vivo for MKDVVDKCSTKGCAIDIGTVIDNDNCTSKFSRFFATREEAESFMTKLKELAAATSSADEGASVAYKIKDLEGQVELDAAFTFSCQAEMIIFELSLRSLA
A) 4.95

Q) Please report the measured total protein half-life in vivo for MSQTSTLKGQCIAEFLGTGLLIFFGVGCVAALKVAGASFGQWEISVIWGLGVAMAIYLTAGVSGAHLNPAVTIALWLFACFDKRKVIPFIVSQVAGAFCAAALVYGLYYNLFFDFEQTHHIVRGSVESVDLAGTFSTYPNPHINFVQAFAVEMVITAILMGLILALTDDGNGVPRGPLAPLLIGLLIAVIGASMGPLTGFAMNPARDFGPKVFAWLAGWGNVAFTGGRDIPYFLVPLFGPIVGAIVGAFAYRKLIGRHLPCDICVVEEKETTTPSEQKASL [P0AER0]
A) 4.17

Q) Please report the measured total protein half-life in vivo for MSEKPLTKTDYLMRLRRCQTIDTLERVIEKNKYELSDNELAVFYSAADHRLAELTMNKLYDKIPSSVWKFIR [P0ACE3]
A) 1.69

Q) Please report the measured total protein half-life in vivo for MKKKTTLSEEDQALFRQLMAGTRKIKQDTIVHRPQRKKISEVPVKRLIQEQADASHYFSDEFQPLLNTEGPVKYVRPDVSHFEAKKLRRGDYSPELFLDLHGLTQLQAKQELGALIAACRREHVFCACVMHGHGKHILKQQTPLWLAQHPHVMAFHQAPKEYGGDAALLVLIEVEEWLPPELP [P0A8B2]
A) 3.84

Batch: total protein half-life in vivo for all items listed.
1. MGFLSGKRILVTGVASKLSIAYGIAQAMHREGAELAFTYQNDKLKGRVEEFAAQLGSDIVLQCDVAEDASIDTMFAELGKVWPKFDGFVHSIGFAPGDQLDGDYVNAVTREGFKIAHDISSYSFVAMAKACRSMLNPGSALLTLSYLGAERAIPNYNVMGLAKASLEANVRYMANAMGPEGVRVNAISAGPIRTLAASGIKDFRKMLAHCEAVTPIRRTVTIEDVGNSAAFLCSDLSAGISGEVVHVDGGFSIAAMNELELK [P0AEK4]
2. MAQRVQLTATVSENQLGQRLDQALAEMFPDYSRSRIKEWILDQRVLVNGKVCDKPKEKVLGGEQVAINAEIEEEARFEPQDIPLDIVYEDEDIIIINKPRDLVVHPGAGNPDGTVLNALLHYYPPIADVPRAGIVHRLDKDTTGLMVVAKTVPAQTRLVESLQRREITREYEAVAIGHMTAGGTVDEPISRHPTKRTHMAVHPMGKPAVTHYRIMEHFRVHTRLRLRLETGRTHQIRVHMAHITHPLVGDPVYGGRPRPPKGASEAFISTLRKFDRQALHATMLRLYHPISGIEMEWHAPIPQDMVELIEVMRADFEEHKDEVDWL
3. MNLDDKSLFLDAMEDVQPLKRATDVHWHPTRNQRAPQRIDTLQLDNFLTTGFLDIIPLSQPLEFRREGLQHGVLDKLRSGKYPQQASLNLLRQPVEECRKMVFSFIQQALADGLRNVLIIHGKGRDDKSHANIVRSYVARWLTEFDDVQAYCTALPHHGGSGACYVALRKTAQAKQENWERHAKRSR
4. MNIENLKTKAEADISEYITKKIIELKKKTGKEVTSIQFTAREKMTGLESYDVKINLI
5. MRWQGRRESDNVEDRRNSSGGPSMGGPGFRLPSGKGGLILLIVVLVAGYYGVDLTGLMTGQPVSQQQSTRSISPNEDEAAKFTSVILATTEDTWGQQFEKMGKTYQQPKLVMYRGMTRTGCGAGQSIMGPFYCPADGTVYIDLSFYDDMKDKLGADGDFAQGYVIAHEVGHHVQKLLGIEPKVRQLQQNATQAEVNRLSVRMELQADCFAGVWGHSMQQQGVLETGDLEEALNAAQAIGDDRLQQQSQGRVVPDSFTHGTSQQRYSWFKRGFDSGDPAQCNTFGKSI

A)
1: 5.9; 2: 5.83; 3: 1.35; 4: 5.85; 5: 5.19

Batch: total protein half-life in vivo for all items listed.
1. MTLRKILALTCLLLPMMASAHQFETGQRVPPIGITDRGELVLDKDQFSYKTWNSAQLVGKVRVLQHIAGRTSAKEKNATLIEAIKSAKLPHDRYQTTTIVNTDDAIPGSGMFVRSSLESNKKLYPWSQFIVDSNGVALGAWQLDEESSAVVVLDKDGRVQWAKDGALTPEEVQQVMDLLQKLLK
2. MNALTAVQNNAVDSGQDYSGFTLTPSAQSPRLLELTFTEQTTKQFLEQVAEWPVQALEYKSFLRFRVAKILDDLCANQLQPLLLKTLLNRAEGALLINAVGVDDVKQADEMVKLATAVAHLIGRSNFDAMSGQYYARFVVKNVDNSDSYLRQPHRVMELHNDGTYVEEITDYVLMMKIDEQNMQGGNSLLLHLDDWEHLDNYFRHPLARRPMRFAAPPSKNVSKDVFHPVFDVDQQGRPVMRYIDQFVQPKDFEEGVWLSELSDAIETSKGILSVPVPVGKFLLINNLFWLHGRDRFTPHPDLRRELMRQRGYFAYASNHYQTHQ

A)
[4.95, 1.18]

Batch: total protein half-life in vivo for all items listed.
1. MLSNDILRSVRYILKANNNDLVRILALGNVEATAEQIAVWLRKEDEEGFQRCPDIVLSSFLNGLIYEKRGKDESAPALEPERRINNNIVLKKLRIAFSLKTDDILAILTEQQFRVSMPEITAMMRAPDHKNFRECGDQFLRYFLRGLAARQHVKKG
2. MRYPVDVYTGKIQAYPEGKPSAIAKIQVDGELMLTELGLEGDEQAEKKVHGGPDRALCHYPREHYLYWAREFPEQAELFVAPAFGENLSTDGLTESNVYMGDIFRWGEALIQVSQPRSPCYKLNYHFDISDIAQLMQNTGKVGWLYSVIAPGKVSADAPLELVSRVSDVTVQEAAAIAWHMPFDDDQYHRLLSAAGLSKSWTRTMQKRRLSGKIEDFSRRLWGK
3. MRLSDYFPESSISVIHSAKDWQEAIDFSMVSLLDKNYISENYIQAIKDSTINNGPYYILAPGVAMPHARPECGALKTGMSLTLLEQGVYFPGNDEPIKLLIGLSAADADSHIGAIQALSELLCEEEILEQLLTASSEKQLADIISRG

A)
6.3
6.38
4.03

Reference source for all entries: the supplement of paper PMC11246515
